Value source: paper PMC5540273

%Inh values by entry
- Test system: MLK2
- CONDITION_DESCRIPTION: concentration: 1 μM, replicates: in singlicate; n = 1
Form entry: value (%) — number only.

CC(=O)c1c(C)c2cnc(Nc3ccc(N4CCNCC4)cn3)nc2n(C2CCCC2)c1=O
0
COC(=O)c1cccc(NC(=O)NC2CCN(c3ccnc(Nc4ccc(F)cc4)n3)C2)c1 (centres unmarked)
0

Next molecule, please.
Inquiry: Field request: %Inh | item: "Cc1ccccc1-c1cc(-c2c[nH]nc2-c2ccccn2)ccn1"
Reply text: 2

###

- System: CDC2L5;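 also: kd values determined as follow-up on hits from a single-replicate KINOMEscan panel screen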
- Construct: gene CDK13
pKd: −log10 of the molar value.
ASSAY_ENDPOINT: pKd

Inquiry: Suppose we examine the compound "COc1ccc(CSc2nnc(-c3ccc4c(c3)CCO4)o2)cc1" ; what pKd value has been reported?
Reply text: < 5.00

###

Recorded %Inh values for a group of molecules are listed next.
- System: ULK2
- CONDITION_DESCRIPTION: concentration: 1 μM, replicates: in singlicate; n = 1
Report as a plain number; the unit % is understood.

O=C(Nc1n[nH]c2cc(-c3ccsc3)ccc12)C1CC1
6

Inquiry: I have this molecule here, "Cc1ccc(NC(=O)Nc2ccc(Cl)cc2)cc1-c1ccc(C(=O)Nc2ccncc2)cc1" , and I need its recorded %Inh.
Reply text: 0

Inquiry: # %Inh lookup, item "Cl.Cl.Cl.N#Cc1ccc(CCNc2nccc(-c3cccc(CN4CCNCC4)c3)n2)cc1"
Reply text: 12

Inquiry: Field request: %Inh | item: "Cc1nccc(-c2c(-c3ccc(F)cc3)ncn2CCCN2CCOCC2)n1.Cl"
Reply text: 26

###

- System: JNK2
- Construct: gene MAPK9
- CONDITION_DESCRIPTION: concentration: 1 μM, replicates: in singlicate; n = 1
# Lookup of reported %Inh keyed by entry

Reference set (6 entries):
Cc1ccc(-c2nc(Nc3ccncc3)c3ccccc3n2)s1
19%
CC(C)c1cc(-c2ccc3c(N)n[nH]c3c2)nc(N)n1
30%
CC[C@@H]1CO[C@H](C(=O)Nc2ccccc2)CN1c1cc(-c2ccc3c(N)n[nH]c3c2)nc(NC)n1
17%
O=c1cc(N2CCOCC2)nc2n(Cc3cccc(Cl)c3Cl)c3ccccc3n12
32%
Fc1ccc(-c2nn3cccc(F)c3c2-c2ccncc2)cc1
93.5%
Fc1ccc(-c2nc[nH]c2-c2ccncc2)cc1
95.6%

Inquiry: Query for JNK2: what %Inh does the record show for "Cc1cccc2c(-c3ccncn3)c(-c3ccc(F)cc3)nn12" ?
Reply text: 74%

Inquiry: Find %Inh (JNK2) for the entry O=C(Nc1n[nH]c2nc(-c3ccco3)c(Br)cc12)C1CCN(Cc2ccccc2)C1.O=C(O)[C@H](O)[C@@H](O)C(=O)O (stereo not drawn)
Reply text: 0%

Inquiry: Look up %Inh with JNK2 for this compound: "CC(=O)c1c(C)c2cnc(Nc3ccc(N4CCNCC4)cn3)nc2n(C2CCCC2)c1=O"
Reply text: 0%

###

- Tested on: CHEK2
- CONDITION_DESCRIPTION: concentration: 1 μM, replicates: in singlicate; n = 1
# %Inh per record follows
Please state the figure in %; there is no need to write the unit.

Example cases with answers are listed next.
Cc1c(Cn2c(C)c(C)n3c(=O)cc(N4CCOCC4)nc23)cccc1C(F)(F)F
8
Cc1ccc(NC(=O)Nc2ccc(Cl)cc2)cc1-c1ccc(C(=O)Nc2ccncc2)cc1
0
CC(=O)c1c(C)c2cnc(Nc3ccn(C)n3)nc2n(C2CCCC2)c1=O
0
CNc1nc(-c2ccc3c(N)n[nH]c3c2)cc(N2C[C@@H](C(=O)Nc3ccccc3)CC[C@H]2C)n1
11

Inquiry: Tell me reported %Inh for "CS(=O)(=O)CCNCc1nc(-c2ccc3ncnc(Nc4ccc5c(cnn5Cc5ccccc5)c4)c3c2)cs1.Cl.Cl" , tested with CHEK2.
Reply text: 57

Inquiry: GET /values?readout=%Inh&system=CHEK2&item= COc1ccc(Nc2nccc(N3CCC(NC(=O)C(C)c4ccc(Cl)cc4)C3)n2)cc1 (stereo not drawn)
Reply text: 0

Inquiry: Notebook: pull reported %Inh for CHEK2, entry "O=C(Nc1n[nH]c2cc(-c3ccsc3)ccc12)C1CC1"
Reply text: 0

Inquiry: Which measured %Inh belongs to "Fc1ccc(-c2nc[nH]c2-c2ccncc2)cc1" , tested on CHEK2?
Reply text: 16

Inquiry: Under CHEK2: %Inh value of "Cc1ccc(NC(=O)Nc2ccccc2F)cc1-c1ccc(C(=O)Nc2ccncc2)cc1" ?
Reply text: 0
